measuredOn: Ubiquitin-activating enzyme e1, putative (Leishmania donovani (strain BPK282A1))
Sequence (whole entry): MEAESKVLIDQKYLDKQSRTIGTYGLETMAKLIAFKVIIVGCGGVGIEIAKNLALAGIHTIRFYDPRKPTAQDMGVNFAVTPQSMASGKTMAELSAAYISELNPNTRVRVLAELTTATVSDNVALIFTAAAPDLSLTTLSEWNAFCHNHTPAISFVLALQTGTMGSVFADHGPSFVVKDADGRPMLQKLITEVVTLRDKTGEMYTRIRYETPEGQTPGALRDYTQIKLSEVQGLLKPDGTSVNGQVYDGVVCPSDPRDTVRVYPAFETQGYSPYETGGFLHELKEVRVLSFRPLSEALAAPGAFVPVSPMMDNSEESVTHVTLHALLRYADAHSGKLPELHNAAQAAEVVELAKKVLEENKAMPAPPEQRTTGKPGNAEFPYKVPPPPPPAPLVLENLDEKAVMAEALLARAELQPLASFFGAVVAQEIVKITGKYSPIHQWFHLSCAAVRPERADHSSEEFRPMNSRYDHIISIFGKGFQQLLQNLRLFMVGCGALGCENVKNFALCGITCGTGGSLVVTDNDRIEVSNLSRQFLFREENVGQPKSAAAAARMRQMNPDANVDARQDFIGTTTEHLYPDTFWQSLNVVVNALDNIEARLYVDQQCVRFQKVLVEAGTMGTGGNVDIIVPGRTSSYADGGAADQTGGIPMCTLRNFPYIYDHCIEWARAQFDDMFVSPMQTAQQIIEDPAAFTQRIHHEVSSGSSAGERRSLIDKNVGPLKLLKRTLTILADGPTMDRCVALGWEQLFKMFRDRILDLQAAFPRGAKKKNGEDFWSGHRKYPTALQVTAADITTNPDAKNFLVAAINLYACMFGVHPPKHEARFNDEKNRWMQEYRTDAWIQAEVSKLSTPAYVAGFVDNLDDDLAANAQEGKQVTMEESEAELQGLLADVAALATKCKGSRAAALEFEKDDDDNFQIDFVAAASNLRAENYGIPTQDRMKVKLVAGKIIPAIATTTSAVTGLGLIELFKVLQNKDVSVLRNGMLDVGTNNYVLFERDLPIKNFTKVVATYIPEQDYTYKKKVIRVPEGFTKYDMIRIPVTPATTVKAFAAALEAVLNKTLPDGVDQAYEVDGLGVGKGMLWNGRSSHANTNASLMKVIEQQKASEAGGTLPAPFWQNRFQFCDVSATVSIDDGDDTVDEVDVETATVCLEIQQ
methodNotes: Leishmania donovani Ubiquitin Activating Enzyme (LdE1)
Type: functional
Design: scale not given: direction of the effect not stated beside the values
studyConditions: 30 µM
Results with a measured potency or affinity are listed apart.
readoutType: Percent Effect (%)
Number only, in %; omit the unit.

Consider the reported Percent Effect for these molecules:
- molecule: "COc1ccnc(N2CCN(C(=O)NCc3ccc(C)s3)CC2)n1"
  measuredOn: "Ubiquitin-activating enzyme e1, putative (Leishmania donovani (strain BPK282A1))"
  Percent Effect (%): 15.6
- molecule: "CC(C)N1CC(C(=O)NCCc2csc(-c3ccncc3)n2)CC1=O (stereo not given)"
  measuredOn: "Ubiquitin-activating enzyme e1, putative (Leishmania donovani (strain BPK282A1))"
  Percent Effect (%): 20.8
- molecule: "O=C(COCc1ccccc1Cl)N1CCCC(n2cccn2)C1 (stereo not given)"
  measuredOn: "Ubiquitin-activating enzyme e1, putative (Leishmania donovani (strain BPK282A1))"
  Percent Effect (%): 18.2

Which value of Percent Effect has been reported for Cc1nn(C)c(Cl)c1C1CCCN1CC(=O)NCc1ccccn1 (stereo not given) in the records? 1.27

Name the reported Percent Effect value associated with the molecule `CCc1c(C(=O)N2CCN(c3ncccn3)CC2)cnn1C(C)(C)C` 21.1

Can you share its Percent Effect? I mean this molecule: COCCNC(=O)C(C)n1cc(Br)cn1 (stereo not given) 5.2

Give its Percent Effect value. Item: c1csc(-c2nc(CN3CCOC(Cn4cncn4)C3)co2)c1 (stereo not given) 10.8

Returns the measured Percent Effect for the input molecule. Input: Cc1cnn(CCC(=O)N2CCCC(c3cc(C(N)=O)[nH]n3)C2)c1 (stereo not given) 5.41

For Cc1cc(C)n(C2CCCN(C(=O)CCCNc3ncccn3)C2)n1 (stereo not given) , what is its reported Percent Effect? 13.9

Which Percent Effect value is on record for COCc1nc(C(=O)N2CCCCC2Cn2cccn2)cs1 (stereo not given) ? -7.89

# get_value(readout='Percent Effect', item= `CCn1c(N)nc2cc(C(=O)NCCc3sccc3C)cnc21` ) -2.74

Percent Effect lookup needed for Cc1cc(CN2CCN(CC(O)C(C)(C)C)CC2)no1 (stereo not given) , thanks. 15.2

Any idea what its Percent Effect is? The molecule is Cc1nc(CNC(C)c2ccc(OCC(=O)NC3CC3)cc2)cs1 (stereo not given) 19

Need Percent Effect of CC(C)COCC(NC(=O)c1cccnc1)c1ccco1 (stereo not given) , thanks. 10.8

Would you kindly share the measured Percent Effect for Cc1cnn(CCCNC(=O)N2CCCCC(N3CCCC3)C2)c1 (stereo not given) ? 15.8

Endpoint output: Percent Effect of `CN(Cc1ccsc1)C(=O)c1cccc(S(=O)(=O)NC(C)(C)C)c1` . Value? 23.4

Please report the recorded Percent Effect for CNc1cc(C2CCCN2Cc2ccccc2C(=O)O)ccn1 (stereo not given) . -6.76

Please look up its Percent Effect: `O=C(NCc1cnc2n1CCN(c1ncc(F)cn1)CC2)C1CCC1` 0

Please look up its Percent Effect: `Cc1ccccc1NS(=O)(=O)c1cc2c(c(C(=O)O)c1)OCCO2` 7.89

Could you tell me which Percent Effect is on file for `Cc1noc(C(C)C)c1C(=O)NS(=O)(=O)c1ccc2c(c1)OCCCO2` ? 2.63
